meta.source: patent US4603128A

Tested on: mineralocorticoid receptor of mammalian kidney
Assay: Mineralocorticoid receptor affinity (competition with 3H-aldosterone)
Format: binding
Conditions: ratio of mineralocorticoid to androgen receptor affinity (therapeutic index)
Reported values of Affinity Mineralocorticoid:Androgen Ratio for individual entries
Give the value as a plain number.

Lab entry: mineralocorticoid receptor of mammalian kidney assay, molecule `CC(=O)S[C@@H]1CC2=CC(=O)CC[C@]2(C)[C@H]2CC[C@]3(C)[C@@H](C(=O)CO)CC[C@H]3[C@H]12` , Affinity Mineralocorticoid:Androgen Ratio = 175

// returns Affinity Mineralocorticoid:Androgen Ratio for `CCC(=O)OCC(=O)[C@H]1CC[C@H]2[C@@H]3[C@H](SC(C)=O)CC4=CC(=O)CC[C@]4(C)[C@H]3CC[C@]12C` with mineralocorticoid receptor of mammalian kidney; value = 190

mineralocorticoid receptor of mammalian kidney assay, molecule `CCCCCCC(=O)OCC(=O)[C@H]1CC[C@H]2[C@@H]3[C@H](SC(C)=O)CC4=CC(=O)CC[C@]4(C)[C@H]3CC[C@]12C` , recorded Affinity Mineralocorticoid:Androgen Ratio = 180

Note to self: Affinity Mineralocorticoid:Androgen Ratio of `CC(=O)OCC(=O)[C@H]1CC[C@H]2[C@@H]3[C@H](SC(C)=O)CC4=CC(=O)CC[C@]4(C)[C@H]3CC[C@]12C` with mineralocorticoid receptor of mammalian kidney was 325

The reported mineralocorticoid receptor of mammalian kidney Affinity Mineralocorticoid:Androgen Ratio of `CC(=O)S[C@@H]1CC2=CC(=O)CC[C@]2(C)[C@H]2CC[C@]3(C)[C@@H](C(C)=O)CC[C@H]3[C@H]12` is 172

###

Tested on: mineralocorticoid receptor of mammalian kidney
Assay: Mineralocorticoid receptor affinity (competition with 3H-aldosterone)
Type: binding
Settings: amount of aldosterone vs amount of steroid for 50% reduction in binding of 1.3×10^-9 M 3H-aldosterone, kidney cytosol; aldosterone = 100
Observable: Corticosteroid Receptor Affinity % Mineralocorticoid (%)
The figure you give is taken to be in %; do not add the unit.

Form: compound = `CC(=O)S[C@@H]1CC2=CC(=O)CC[C@]2(C)[C@H]2CC[C@]3(C)[C@@H](C(C)=O)CC[C@H]3[C@H]12` ; Corticosteroid Receptor Affinity % Mineralocorticoid = 43

// `CCCC(=O)OCC(=O)[C@H]1CC[C@H]2[C@@H]3[C@H](SC(C)=O)CC4=CC(=O)CC[C@]4(C)[C@H]3CC[C@]12C` : Corticosteroid Receptor Affinity % Mineralocorticoid value = 60

get_value(item= `CCCCC(=O)OCC(=O)[C@H]1CC[C@H]2[C@@H]3[C@H](SC(C)=O)CC4=CC(=O)CC[C@]4(C)[C@H]3CC[C@]12C` , readout=Corticosteroid Receptor Affinity % Mineralocorticoid) returns 68

// recorded Corticosteroid Receptor Affinity % Mineralocorticoid for C[C@]12CCC(=O)C=C1CC[C@@H]1[C@@H]2[C@@H](O)C[C@]2(C=O)[C@@H](C(=O)CO)CC[C@@H]12 [Aldosterone, reference compound] : 100

###

Tested on: mineralocorticoid receptor of mammalian kidney
Experiment: Mineralocorticoid receptor affinity (competition with 3H-aldosterone)
Format: binding
Conditions: ratio of mineralocorticoid to androgen receptor affinity (therapeutic index)
Observable: Affinity Mineralocorticoid:Androgen Ratio

CC(=O)S[C@@H]1CC2=CC(=O)CC[C@]2(C)[C@H]2CC[C@]3(C)[C@@H](C(=O)COC(=O)C(C)(C)C)CC[C@H]3[C@H]12 [Example 8] : 300

Case CCCC(=O)OCC(=O)[C@H]1CC[C@H]2[C@@H]3[C@H](SC(C)=O)CC4=CC(=O)CC[C@]4(C)[C@H]3CC[C@]12C [Example 5] , mineralocorticoid receptor of mammalian kidney, Affinity Mineralocorticoid:Androgen Ratio recorded as 300

CCCCC(=O)OCC(=O)[C@H]1CC[C@H]2[C@@H]3[C@H](SC(C)=O)CC4=CC(=O)CC[C@]4(C)[C@H]3CC[C@]12C [Example 6] tested on mineralocorticoid receptor of mammalian kidney gave Affinity Mineralocorticoid:Androgen Ratio: 340
